# Tested on: peptide-specific IgG
# assay_explanation: ELISA screening of peptide-reactive IgG in plasma of 12 HCV-1b patients and 10 HDs (Example 2)
# Format: binding, human
# assay_conditions: number of 12 HCV-1b+ patients above cut-off 0.18 OD, plasma dilution 1:100
readout_kind: Reactivity to peptide-specific IgG Patients (n = 12)

>>> value_observed("MYVGGVEHRL [No. 20]")
0
>>> value_observed("DFKTWLQSKL [No. 36]")
1
>>> value_observed("NFISGIQYL [No. 15]")
0
>>> value_observed("HYVQMALMKL [No. 21]")
3
>>> value_observed("GYGAGVAGAL [No. 23]")
2
>>> value_observed("QFKQKALGL [No. 64]")
1
>>> value_observed("HYKLFLARL [No. 9]")
0
>>> value_observed("LFLARLIWWL [No. 33]")
0
>>> value_observed("HYRDVLKEM [No. 61]")
3
>>> value_observed("VFVGLILLTL [No. 30]")
2
>>> value_observed("TFLVGLNQYL [No. 29]")
2
>>> value_observed("SFAIKWEYVL [No. 39]")
1
>>> value_observed("QYSPGQRVEF [No. 65]")
0
>>> value_observed("TYVYDHLTPL [No. 22]")
2
>>> value_observed("AYMSKAHGI [No. 11]")
2
>>> value_observed("IFTITKILL [No. 18]")
3
>>> value_observed("HYPCTVNFTI [No. 27]")
2

====

# System: peptide-specific IgG
# assay_explanation: ELISA screening of peptide-reactive IgG in plasma of 12 HCV-1b patients and 10 HDs (Example 2)
# Type: binding, human
# assay_conditions: number of 12 HCV-1b+ patients above cut-off 0.18 OD, plasma dilution 1:100
Quick reference: Reactivity to peptide-specific IgG Patients (n = 12) of the listed items.
readout_kind: Reactivity to peptide-specific IgG Patients (n = 12)

>>> value_observed("QFKQKALGLL [No. 66]")
1
>>> value_observed("AYALYGVWPL [No. 26]")
2
>>> value_observed("LYGVWPLLL [No. 7]")
0
>>> value_observed("AYAAQGYKVL [No. 24]")
2
>>> value_observed("QFKQKAIGL [No. 17]")
3
>>> value_observed("MYTNVDQDL [No. 5]")
0
>>> value_observed("SYTWTGALI [No. 60]")
0
>>> value_observed("AYSQQTRGL [No. 8]")
0
>>> value_observed("EFWESVFTGL [No. 31]")
0
>>> value_observed("QYLAGLSTL [No. 6]")
0
>>> value_observed("GYIPIVGAPL [No. 19]")
1
>>> value_observed("AFTASITSPL [No. 35]")
0
>>> value_observed("AFYGVWPLL [No. 63]")
0
>>> value_observed("EYVLLLFLL [No. 4]")
2
>>> value_observed("PYFVRAHGL [No. 16]")
0
>>> value_observed("YYRGLDVSVI [No. 28]")
2
>>> value_observed("YFITRAEAHL [No. 34]")
1
>>> value_observed("TYATYGKFL [No. 10]")
1
>>> value_observed("FFTEVDGVRL [No. 37]")
1
>>> value_observed("PYIEQGMQL [No. 14]")
1
>>> value_observed("WFMWCLLLL [No. 62]")
3
